- TEST DETAILS: Plasma carotenoids in one person consuming one egg per day (HPLC)
- CONDITION SET: human, in vivo
PROPERTY MEASURED: concentration at 24 day (nM)
Number in nM, nothing else.

For the compound CC1=C[C@H](O)CC(C)(C)[C@H]1/C=C/C(C)=C/C=C/C(C)=C/C=C/C=C(C)/C=C/C=C(C)/C=C/C1=C(C)C[C@@H](O)CC1(C)C , what concentration at 24 day is on record?
1060

---

- TEST DETAILS: Plasma carotenoids in one person consuming one egg per day (HPLC)
- CONDITION SET: human, in vivo
PROPERTY MEASURED: concentration at 12 day (nM)
Number in nM, nothing else.

For the molecule CC1=C[C@H](O)CC(C)(C)[C@H]1/C=C/C(C)=C/C=C/C(C)=C/C=C/C=C(C)/C=C/C=C(C)/C=C/C1=C(C)C[C@@H](O)CC1(C)C , what concentration at 12 day is on record?
1200
